Target: T1, Human Siglec 5, Fc chimera (R&D Systems) (human, UniProt O15389 17-434, limits assumed)
T1 construct: Bought or recombinant Fc fusion; also called recombinant Siglec-5-Fc; not shown: Fc part
T1 sequence: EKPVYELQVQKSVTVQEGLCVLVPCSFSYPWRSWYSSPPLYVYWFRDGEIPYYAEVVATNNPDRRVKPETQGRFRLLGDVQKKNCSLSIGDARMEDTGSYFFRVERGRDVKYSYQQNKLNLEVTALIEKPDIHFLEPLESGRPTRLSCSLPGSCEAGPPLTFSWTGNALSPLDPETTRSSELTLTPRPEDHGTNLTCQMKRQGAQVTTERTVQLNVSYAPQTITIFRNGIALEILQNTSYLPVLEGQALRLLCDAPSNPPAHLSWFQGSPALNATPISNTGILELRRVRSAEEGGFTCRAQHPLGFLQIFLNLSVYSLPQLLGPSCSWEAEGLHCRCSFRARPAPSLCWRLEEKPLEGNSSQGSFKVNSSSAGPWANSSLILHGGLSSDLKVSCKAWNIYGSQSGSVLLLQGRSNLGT
Assay: RBC adhesion to plate-bound Siglec-5-Fc, 1.0 ug/ml mAb, percent of binding without antibody
Recorded Percent RBC Binding to Siglec-5 values for a group of binders are listed next.
A complete answer gives the number and then names the unit.

# Binder, Result
measured = [
    ("anti-Siglec-5 monoclonal antibody 10B6 (antibody, IgG1, V domains shown) VH: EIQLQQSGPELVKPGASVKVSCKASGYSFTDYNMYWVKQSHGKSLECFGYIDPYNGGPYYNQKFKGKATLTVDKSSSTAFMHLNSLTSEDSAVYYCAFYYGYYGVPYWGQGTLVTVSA VL: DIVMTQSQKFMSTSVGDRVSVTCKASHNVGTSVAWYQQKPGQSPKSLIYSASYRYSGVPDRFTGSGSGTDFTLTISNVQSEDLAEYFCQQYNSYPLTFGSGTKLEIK", "5.21%"),
]

Now consider a different binder.
Recall and state the measured Percent RBC Binding to Siglec-5 for anti-Siglec-5 monoclonal antibody 8C3 (antibody, IgG1, V domains shown) VH: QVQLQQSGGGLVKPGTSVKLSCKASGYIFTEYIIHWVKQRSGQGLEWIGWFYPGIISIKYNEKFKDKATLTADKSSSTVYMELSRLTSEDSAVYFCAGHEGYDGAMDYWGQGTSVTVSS VL: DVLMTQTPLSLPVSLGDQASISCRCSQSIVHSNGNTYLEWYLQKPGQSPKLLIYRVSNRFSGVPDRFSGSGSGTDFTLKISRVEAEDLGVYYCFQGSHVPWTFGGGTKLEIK .
5.36%
